measured-parameter: melting point

Example compounds with recorded melting point:
Summary for this compound, `C[C@]1(Cn2cc([N+](=O)[O-])nc2Br)CO1` : melting point is 93 to 94 °C

Summary for this compound, `C[C@]1(Cn2cc([N+](=O)[O-])nc2Cl)CO1` : melting point is 65.5 to 67 °C

Summary for this compound, `C[C@@]1(Cn2cc([N+](=O)[O-])nc2Br)CO1` : melting point is 93 to 94 °C

New cases:
Summary for this compound, C[C@]1(CN2CCN(c3ccc(OC(F)(F)F)cc3)CC2)Cn2cc([N+](=O)[O-])nc2O1 [Reference Example 7] : melting point is 129 to 130 °C

Origin of values: patent US8129544B2
